Data origin: patent US8445473B2

Assign Cmax to each entry below.
test: Pharmacokinetics in rats following oral administration; conditions: rat, in vivo, male Sprague-Dawley rats, 25 mg/kg, mean±SD, n=3
Field format: number, assumed ng/mL, no unit text.

**Query** Requested read-out: Cmax. Entry: `CN[C@@H](C)C(=O)N[C@H]1CN(C(=O)Cc2ccc(F)cc2)CC[C@H]2CC[C@@H](c3nc4c(-c5ccccc5)cccc4[nH]3)N2C1=O`
**Result** 612

**Query** Requested read-out: Cmax. Entry: `CN[C@@H](C)C(=O)N[C@H]1CN(C(=O)CC(C)C)CC[C@H]2CC[C@@H](c3nc4c(-c5ccc(F)cc5)cccc4[nH]3)N2C1=O`
**Result** 1530

**Query** Requested read-out: Cmax. Entry: `CN[C@@H](C)C(=O)N[C@H]1CN(C(=O)CC(C)C)CC[C@H]2CC[C@@H](c3nc4c(-c5ccccc5)cccc4[nH]3)N2C1=O`
**Result** 831

* * *

test: Pharmacokinetics in rats following oral administration; details: rat, in vivo, male Sprague-Dawley rats, 25 mg/kg, mean±SD, n=3
VALUE_TYPE: AUC(0-inf) (µg·h/mL)
Field format: number, assumed µg·h/mL, no unit text.

**Query** Requested read-out: AUC(0-inf). Entry: `CN[C@@H](C)C(=O)N[C@H]1CN(C(=O)CC(C)C)CC[C@H]2CC[C@@H](c3nc4c(-c5ccccc5)cccc4[nH]3)N2C1=O`
**Result** 7.1

**Query** Requested read-out: AUC(0-inf). Entry: `CN[C@@H](C)C(=O)N[C@H]1CN(C(=O)CC(C)C)CC[C@H]2CC[C@@H](c3nc4c(-c5ccc(F)cc5)cccc4[nH]3)N2C1=O`
**Result** 14.3

**Query** Requested read-out: AUC(0-inf). Entry: `CN[C@@H](C)C(=O)N[C@H]1CN(C(=O)Cc2ccc(F)cc2)CC[C@H]2CC[C@@H](c3nc4c(-c5ccccc5)cccc4[nH]3)N2C1=O`
**Result** 6.49

* * *

assay: Pharmacokinetics in rats following oral administration; details: rat, in vivo, male Sprague-Dawley rats, 25 mg/kg, mean±SD, n=3, read-out: half-life (T½) (converted)
VALUE_TYPE: half-life (h)
Field format: number, assumed h, no unit text.

**Query** Requested read-out: half-life. Entry: `CN[C@@H](C)C(=O)N[C@H]1CN(C(=O)CC(C)C)CC[C@H]2CC[C@@H](c3nc4c(-c5ccccc5)cccc4[nH]3)N2C1=O`
**Result** 3.7

**Query** Requested read-out: half-life. Entry: `CN[C@@H](C)C(=O)N[C@H]1CN(C(=O)Cc2ccc(F)cc2)CC[C@H]2CC[C@@H](c3nc4c(-c5ccccc5)cccc4[nH]3)N2C1=O`
**Result** 4.2

**Query** Requested read-out: half-life. Entry: `CN[C@@H](C)C(=O)N[C@H]1CN(C(=O)CC(C)C)CC[C@H]2CC[C@@H](c3nc4c(-c5ccc(F)cc5)cccc4[nH]3)N2C1=O`
**Result** 6.7

* * *

molecular target: cIAP2 BIR3 domain (residues 238-349) (Homo sapiens, UniProt Q13489); construct: cIAP2 BIR3 domain (residues 238-349); His-tag; test: Fluorescence polarization competitive binding assay to cIAP2 BIR3; details: FP competitive binding, SM5F or SM-F1 as the tracer
Sequence (Q13489 238-349): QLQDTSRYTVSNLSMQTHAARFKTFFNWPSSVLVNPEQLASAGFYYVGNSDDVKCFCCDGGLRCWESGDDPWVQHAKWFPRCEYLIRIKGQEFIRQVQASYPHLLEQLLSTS
pIC50: −log10 of the molar value.
Assign pIC50 to each entry below.

**Query** Requested read-out: pIC50. Entry: `CN[C@@H](C)C(=O)N[C@H]1CCCC[C@H]2CC[C@@H](c3nc4c(-c5ccccc5)cccc4[nH]3)N2C1=O`
**Result** > 7.00

**Query** Requested read-out: pIC50. Entry: `CN[C@@H](C)C(=O)N[C@H]1CN(C(=O)CCc2ccc(F)cc2)CC[C@H]2CC[C@@H](c3nc4c(-c5ccccc5)cccc4[nH]3)N2C1=O`
**Result** > 7.00

**Query** Requested read-out: pIC50. Entry: `CN[C@@H](C)C(=O)N[C@H]1CN(C(=O)Cc2ccc(F)cc2)CC[C@H]2CC[C@@H](c3nc4c(-c5cccc(F)c5)cccc4[nH]3)N2C1=O`
**Result** > 7.00

**Query** Requested read-out: pIC50. Entry: `CN[C@@H](C)C(=O)N[C@H]1CN(C(=O)Cc2ccc(F)cc2)CC[C@H]2CC[C@@H](c3nc4c(-c5ccccc5F)cccc4[nH]3)N2C1=O`
**Result** > 7.00

**Query** Requested read-out: pIC50. Entry: `CN[C@@H](C)C(=O)N[C@H]1CCCC[C@H]2CC[C@@H](c3nc(-c4ccccc4)cs3)N2C1=O`
**Result** > 5.70

**Query** Requested read-out: pIC50. Entry: `CN[C@@H](C)C(=O)N[C@H]1CN(C(=O)CC(C)C)CC[C@H]2CC[C@@H](c3nc4c(-c5ccc(F)cc5)cccc4[nH]3)N2C1=O`
**Result** > 7.00

**Query** Requested read-out: pIC50. Entry: `CN[C@@H](C)C(=O)N[C@H]1CN(C(=O)CC(C)C)CC[C@H]2CC[C@@H](c3nc4c(-c5ccccc5)cccc4[nH]3)N2C1=O`
**Result** > 7.00

**Query** Requested read-out: pIC50. Entry: `CN[C@@H](C)C(=O)N[C@H]1CN(C(=O)Cc2ccc(F)cc2)CC[C@H]2CC[C@@H](c3nc4c(-c5ccc(F)cc5)cccc4[nH]3)N2C1=O`
**Result** > 7.00

**Query** Requested read-out: pIC50. Entry: `CN[C@@H](C)C(=O)N[C@H]1CN(C(=O)CC(C)C)CC[C@H]2CC[C@@H](c3nc(-c4ccccc4)cs3)N2C1=O`
**Result** > 6.00

**Query** Requested read-out: pIC50. Entry: `CN[C@@H](C)C(=O)N[C@H]1CN(C(=O)Cc2ccccc2)CC[C@H]2CC[C@@H](c3nc4c(-c5ccccc5)cccc4[nH]3)N2C1=O`
**Result** > 7.00

**Query** Requested read-out: pIC50. Entry: `CN[C@@H](C)C(=O)N[C@H]1CN(C(=O)CCc2ccccc2)CC[C@H]2CC[C@@H](c3nc4c(-c5ccccc5)cccc4[nH]3)N2C1=O`
**Result** > 7.00

**Query** Requested read-out: pIC50. Entry: `CN[C@@H](C)C(=O)N[C@H]1CN(C(=O)Cc2ccccc2)CC[C@H]2CC[C@@H](c3nc4c(-c5ccc(F)cc5)cccc4[nH]3)N2C1=O`
**Result** > 7.00

**Query** Requested read-out: pIC50. Entry: `CN[C@@H](C)C(=O)N[C@H]1CN(C(=O)Cc2ccc(F)cc2)CC[C@H]2CC[C@@H](c3nc4c(-c5ccccc5)cccc4[nH]3)N2C1=O`
**Result** > 7.00
